compounds and their reported MIC
Tested on: Pseudomonas aeruginosa
assay-text: Antimicrobial activity against carbapenem-resistant Pseudomonas aeruginosa isolate
Assay type: functional

Known results for compounds:
NCC[C@H](O)C(=O)N[C@@H]1C[C@H](N)[C@@H](O[C@H]2O[C@H](CN)[C@@H](O)[C@H](O)[C@H]2O)[C@H](O)[C@H]1O[C@H]1O[C@H](CO)[C@@H](O)[C@H](N)[C@H]1O [AMIKACIN]
> 16 µg/mL
C[C@@H](O)[C@H]1C(=O)N2C(C(=O)O)=C(S[C@@H]3CN[C@H](C(=O)N(C)C)C3)[C@H](C)[C@H]12 [MEROPENEM]
≥ 8 µg/mL

Ask: Fill in the blank: the reported MIC of CC(O)[C@H]1C(=O)N2C(C(=O)O)=C(SCCNC=N)C[C@H]12 (single isomer, unassigned) [IMIPENEM ANHYDROUS] is ____.
Result: ≥ 8 µg/mL
